The measurements presented in this section are drawn from paper PMC10786891.

List of pKd values.
# target under test: T1, EsCas13d, nuclease-dead (Eubacterium siraeum, UniProt B0MS50, R295A;H300A;R849A;H854A)
# T1 sequence: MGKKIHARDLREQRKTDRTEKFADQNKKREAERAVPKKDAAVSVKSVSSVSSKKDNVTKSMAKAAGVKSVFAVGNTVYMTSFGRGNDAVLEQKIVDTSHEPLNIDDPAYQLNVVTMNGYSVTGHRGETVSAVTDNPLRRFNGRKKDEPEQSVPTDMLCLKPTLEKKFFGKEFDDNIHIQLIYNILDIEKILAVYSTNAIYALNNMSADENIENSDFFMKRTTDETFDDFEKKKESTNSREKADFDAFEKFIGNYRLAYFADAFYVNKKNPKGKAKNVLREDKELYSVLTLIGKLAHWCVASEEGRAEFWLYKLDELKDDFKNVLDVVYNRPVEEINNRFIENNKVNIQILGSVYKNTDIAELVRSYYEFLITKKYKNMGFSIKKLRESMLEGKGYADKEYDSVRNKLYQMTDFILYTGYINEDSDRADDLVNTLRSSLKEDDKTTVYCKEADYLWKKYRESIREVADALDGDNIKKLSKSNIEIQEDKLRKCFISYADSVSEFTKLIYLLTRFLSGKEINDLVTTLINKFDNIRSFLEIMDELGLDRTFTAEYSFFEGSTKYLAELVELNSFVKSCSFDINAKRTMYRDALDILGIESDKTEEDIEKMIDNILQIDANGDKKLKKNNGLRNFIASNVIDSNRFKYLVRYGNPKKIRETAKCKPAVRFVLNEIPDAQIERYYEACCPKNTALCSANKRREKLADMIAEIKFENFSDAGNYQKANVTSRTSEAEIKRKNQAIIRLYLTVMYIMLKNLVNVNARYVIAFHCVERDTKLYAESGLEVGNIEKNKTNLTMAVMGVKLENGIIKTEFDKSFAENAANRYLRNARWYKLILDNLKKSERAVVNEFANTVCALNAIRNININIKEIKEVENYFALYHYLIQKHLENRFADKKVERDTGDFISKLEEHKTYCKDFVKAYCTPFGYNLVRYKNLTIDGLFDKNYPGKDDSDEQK
# protocol: crRNA (strand 1, pre-loaded); Mg2+; 40 mM Tris-HCl pH 7.5, 150 mM NaCl, 6 mM MgCl2, 1 mM DTT, 0.1% Tween-20, 0.2 mg/ml BSA; 25 C; 10 min per concentration, then washed
# test context: tags: His6-TwinStrep-SUMO cleaved; N-terminal SNAP kept (SNAP-Surface 488); label: 3' end held by stalled T7 RNA polymerase
pKd: −log10 of the molar value.

binder: target 1 insG 3' of 16,insU 3' of 16 (mixed) RNA 1: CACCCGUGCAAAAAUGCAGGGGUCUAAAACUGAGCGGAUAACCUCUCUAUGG RNA 2: GGGAAUGGAUCCACAUCUACGAAUUCGUACCAUAGAGUGAGGUUAUCCGCUCACCGAGAUCGGAAGAGCACACGU
pKd: 7.36

binder: target 3 A5G (mixed) RNA 1: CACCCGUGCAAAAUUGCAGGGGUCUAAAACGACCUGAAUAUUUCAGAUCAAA RNA 2: GGGAAUGGAUCCACAUCUACGAAUUCGUUUUUGAUCUGAAAUAUUCGGGUCUGCAGAUCGGAAGAGCACACGU
pKd: 7.68

binder: target 1 C2U,A20C (mixed) RNA 1: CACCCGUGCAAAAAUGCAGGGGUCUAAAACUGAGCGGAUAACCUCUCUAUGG RNA 2: GGGAAUGGAUCCACAUCUACGAAUUCGUACCCUAGAGAGGUUAUCCGCUUACCGAGAUCGGAAGAGCACACGU
pKd: 7.50

binder: target 1 insU 3' of 18,insU 3' of 12 (mixed) RNA 1: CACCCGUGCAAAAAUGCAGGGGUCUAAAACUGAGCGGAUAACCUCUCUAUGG RNA 2: GGGAAUGGAUCCACAUCUACGAAUUCGUACCAUAUGAGAGGUUUAUCCGCUCACCGAGAUCGGAAGAGCACACGU
pKd: 7.58

binder: target 2 MT 5'PFS UGC 3'PFS UCA (mixed) RNA 1: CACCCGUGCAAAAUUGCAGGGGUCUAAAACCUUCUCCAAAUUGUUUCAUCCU RNA 2: GGGAAUGGAUCCACAUCUACGAAUUCUGCAGGAUGAAACAAUUUGGAGAAGUCAAGAUCGGAAGAGCACACGU
pKd: 7.98

binder: target 3 complement block 5-8 (mixed) RNA 1: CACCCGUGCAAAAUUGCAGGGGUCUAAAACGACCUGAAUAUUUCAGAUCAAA RNA 2: GGGAAUGGAUCCACAUCUACGAAUUCGUUUUUGAUCUGAAAUAAAGUGGUCUGCAGAUCGGAAGAGCACACGU
pKd: 7.22

binder: target 1 MT 5'PFS GUU 3'PFS CUC (mixed) RNA 1: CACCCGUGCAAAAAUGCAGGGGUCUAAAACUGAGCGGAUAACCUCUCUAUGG RNA 2: GGGAAUGGAUCCACAUCUACGAAUUCGUUCCAUAGAGAGGUUAUCCGCUCACUCAGAUCGGAAGAGCACACGU
pKd: 7.67

binder: target 1 A1G,U8C (mixed) RNA 1: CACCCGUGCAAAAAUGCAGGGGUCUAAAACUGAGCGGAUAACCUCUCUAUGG RNA 2: GGGAAUGGAUCCACAUCUACGAAUUCGUACCAUAGAGAGGUUACCCGCUCGCCGAGAUCGGAAGAGCACACGU
pKd: 7.99
